// values below are reported FACS MFI
Target: T1, Macaca fascicularis CD276 (Macaca fascicularis)
T1 construct: whole, on cells; also called cynomolgus monkey CD276; cynoCD276
Assay: FACS on CHO-S-cynoCD276 cells
Form field (numeric): enter value without unit.

For record 25-C8-D7-C5 (antibody, V domains shown, mouse monoclonal antibody (hybridoma)) VH: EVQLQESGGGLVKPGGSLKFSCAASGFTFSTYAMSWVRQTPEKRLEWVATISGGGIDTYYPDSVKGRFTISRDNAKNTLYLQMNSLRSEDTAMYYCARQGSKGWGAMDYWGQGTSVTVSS VL: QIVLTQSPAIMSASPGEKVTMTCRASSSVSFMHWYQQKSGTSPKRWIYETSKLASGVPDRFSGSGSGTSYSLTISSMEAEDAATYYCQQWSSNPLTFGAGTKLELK the listed FACS MFI is 39100

For record 22-E11-C3-F2 (antibody, V domains shown, mouse monoclonal antibody (hybridoma)) VH: QIQLVQSGPELKRPGETVKISCKASGYSFTNYGMNWVKQAPGKGLKWMGWINPYTGEPTYADDFKGRFAMSLETSASAAYLQINNLKNEDMATYFCGRDDGYHYTMNYWGQGTSVTVSS VL: DVVMTQPPLSLPVSLGDQASISCRSSQSLIHSNGDTYLHWYLQKPGQSPKLLIYKVSIRFSGVPDRFSGSGSGTDFTLKISRVEAEDLGVYFCSQSTYVPWTFGGGTKLEIK the listed FACS MFI is 56500

Just for reference, patent US20240400689A1 is where these values come from.
